Data origin: ChEMBL document CHEMBL2074359

- tgt: Solute carrier family 15 member 1 (Rattus norvegicus)
- Sequence (P51574 whole entry): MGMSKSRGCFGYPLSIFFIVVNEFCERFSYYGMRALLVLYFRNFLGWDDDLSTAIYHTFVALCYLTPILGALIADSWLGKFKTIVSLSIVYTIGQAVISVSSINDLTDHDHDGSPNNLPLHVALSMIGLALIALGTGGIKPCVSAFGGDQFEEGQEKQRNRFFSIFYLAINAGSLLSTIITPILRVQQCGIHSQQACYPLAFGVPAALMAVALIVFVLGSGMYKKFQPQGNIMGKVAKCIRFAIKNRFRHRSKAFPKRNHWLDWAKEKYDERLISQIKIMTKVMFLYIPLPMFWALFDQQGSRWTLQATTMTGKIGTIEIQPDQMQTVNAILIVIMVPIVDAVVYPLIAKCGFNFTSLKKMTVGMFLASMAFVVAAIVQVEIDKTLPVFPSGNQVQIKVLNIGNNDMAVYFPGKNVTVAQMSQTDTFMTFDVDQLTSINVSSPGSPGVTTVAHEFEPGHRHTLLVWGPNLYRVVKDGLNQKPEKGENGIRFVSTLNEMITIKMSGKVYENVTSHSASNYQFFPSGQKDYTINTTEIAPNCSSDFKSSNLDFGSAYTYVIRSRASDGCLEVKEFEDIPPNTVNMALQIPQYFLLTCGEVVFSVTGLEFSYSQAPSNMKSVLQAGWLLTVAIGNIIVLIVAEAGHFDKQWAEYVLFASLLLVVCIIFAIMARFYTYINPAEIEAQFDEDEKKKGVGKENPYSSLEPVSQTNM
- method notes: TP_TRANSPORTER: inhibition of Gly-Sar uptake in PEPT1-expressing LLC-PK1 cells
Peptide text beside a SMILES is read from it.
Overview of recorded Ki for various compounds
measure: Ki (µM)

>  <compound>
O=C(O)CNC(=O)[C@@H]1CCCN1 (H-Pro-Gly-OH)

>  <endpoint result>
13000

$$$$
>  <compound>
N[C@@H](Cc1ccccc1)C(=O)NCC(=O)O (H-Phe-Gly-OH)

>  <endpoint result>
220

$$$$
>  <compound>
CC(C)C[C@H](NC(=O)[C@@H](O)[C@H](N)Cc1ccccc1)C(=O)O

>  <endpoint result>
1500

$$$$
>  <compound>
NCC(=O)N[C@@H](CC(=O)O)C(=O)O (H-Gly-Asp-OH)

>  <endpoint result>
300

$$$$
>  <compound>
NCCC(=O)N[C@@H](Cc1cnc[nH]1)C(=O)O

>  <endpoint result>
8000

$$$$
>  <compound>
NCC(=O)N[C@@H](Cc1ccccc1)C(=O)O (H-Gly-Phe-OH)

>  <endpoint result>
170

$$$$
>  <compound>
NCC(=O)NCC(=O)NCC(=O)O

>  <endpoint result>
1300

$$$$
>  <compound>
NCC(=O)NCC(=O)N[C@@H](Cc1ccccc1)C(=O)O (H-Gly-Gly-Phe-OH)

>  <endpoint result>
610

$$$$
>  <compound>
N[C@@H](CC(=O)O)C(=O)N[C@@H](CC(=O)O)C(=O)O (H-Asp-Asp-OH)

>  <endpoint result>
990

$$$$
>  <compound>
NCCCCCCCC(=O)O

>  <endpoint result>
4400

$$$$
